Target: human recombinant caspase-3 enzyme (Homo sapiens, UniProt P42574)
Construct: each cDNA encoding p12 and p17 subunits of caspase-3 was PCR-amplified respectively and subcloned into a pET3-a expression vector; made in house; host or cells: E. coli BL21 (DE3), pET3-a vector
Sequence (P42574 29-175 limits assumed): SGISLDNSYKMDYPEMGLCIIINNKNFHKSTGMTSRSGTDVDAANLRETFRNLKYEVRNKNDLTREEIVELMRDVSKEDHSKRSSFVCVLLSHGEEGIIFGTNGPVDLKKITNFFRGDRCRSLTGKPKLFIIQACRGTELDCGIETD
Sequence (P42574 176-277 limits assumed): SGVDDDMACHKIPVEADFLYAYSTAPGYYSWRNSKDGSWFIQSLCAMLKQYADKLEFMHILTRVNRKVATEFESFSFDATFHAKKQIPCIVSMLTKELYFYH
Test: Enzyme assay of caspase-3 inhibition (fluorogenic Ac-DEVD-AFC substrate)
Type: biochemical
Conditions: caspase-3 activity, at 20 uM
inhibition at 20 µM of 80% or higher: rule met. Under 80%: rule not met.

# Compound, Assigned label
rows = [
    ("CCOC(=O)c1cnc2c(N)cccc2c1NCC(C)C [Example 27]", "rule met"),
    ("CCOC(=O)c1cnc2c(N)cccc2c1NCCc1ccccc1 [Example 38]", "rule not met"),
    ("CCOC(=O)c1cnc2c(N)cccc2c1NCc1ccccn1 [Example 20]", "rule met"),
    ("CCOC(=O)c1cnc2c(N)cccc2c1NCc1ccccc1OC [Example 32]", "rule met"),
    ("CCOC(=O)c1cnc2c(N)cccc2c1NCc1cccc(OC)c1OC [Example 44]", "rule not met"),
    ("CCOC(=O)c1cnc2c(N)cccc2c1NCc1ccc(OC)cc1 [Example 33]", "rule met"),
    ("CCOC(=O)c1cnc2c(N)cccc2c1NC(CC)COC (stereo not shown) [Example 25]", "rule met"),
]

* * *

Molecular target: human recombinant caspase-3 enzyme (Homo sapiens, UniProt P42574)
Construct: each cDNA encoding p12 and p17 subunits of caspase-3 was PCR-amplified respectively and subcloned into a pET3-a expression vector; made in house; host or cells: E. coli BL21 (DE3), pET3-a vector
Assay: Enzyme assay of caspase-3 inhibition (fluorogenic Ac-DEVD-AFC substrate)
Type: biochemical
Settings: selectivity study, text b424; read-out: IC50 against caspase-3
pIC50: −log10 of the molar value.

# Smiles str, pIC50
records = [
    ("CCOC(=O)c1cnc2c(N)cccc2c1NCCCN1CCOCC1", 5.25),
]

* * *

Target: human recombinant caspase-3 enzyme (Homo sapiens)
Construct: each cDNA encoding p12 and p17 subunits of caspase-3 was PCR-amplified respectively and subcloned into a pET3-a expression vector; made in house; host or cells: E. coli BL21 (DE3), pET3-a vector
Sequence (P42574 29-175 limits assumed): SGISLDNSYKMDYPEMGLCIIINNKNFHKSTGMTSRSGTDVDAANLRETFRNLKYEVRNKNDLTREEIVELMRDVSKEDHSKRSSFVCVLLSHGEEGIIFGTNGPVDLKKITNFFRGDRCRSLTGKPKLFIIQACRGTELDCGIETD
Sequence (P42574 176-277 limits assumed): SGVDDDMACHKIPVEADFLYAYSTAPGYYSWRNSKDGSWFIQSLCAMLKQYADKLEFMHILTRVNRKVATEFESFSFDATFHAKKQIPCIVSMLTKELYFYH
Assay: Enzyme assay of caspase-3 inhibition (fluorogenic Ac-DEVD-AFC substrate)
Assay type: biochemical
Details: caspase-3 activity, at 20 uM
Measurement type: inhibition at 20 µM (%)

# Smiles str, Measurement type, Endpoint result
records = [
    ("CCOC(=O)c1cnc2c(N)cccc2c1NCc1cc(OC)cc(OC)c1", "inhibition at 20 µM", 69.3),
    ("CCOC(=O)c1cnc2c(N)cccc2c1NCc1ccc(Cl)cc1Cl", "inhibition at 20 µM", 54.7),
    ("CCOC(=O)c1cnc2c(N)cccc2c1NCc1cccc(F)c1", "inhibition at 20 µM", 76.9),
    ("CCOC(=O)c1cnc2c(N)cccc2c1NCc1ccc(C)cc1", "inhibition at 20 µM", 82.1),
    ("CCOC(=O)c1cnc2c(N)cccc2c1NC(C)C", "inhibition at 20 µM", 85.2),
    ("CCOC(=O)c1cnc2c(N)cccc2c1NCc1cccc2ccccc12", "inhibition at 20 µM", 84.9),
    ("CCCCNc1c(C(=O)OCC)cnc2c(N)cccc12", "inhibition at 20 µM", 88.9),
    ("CCOC(=O)c1cnc2c(N)cccc2c1NCCOC", "inhibition at 20 µM", 91.5),
    ("CCCOC(=O)c1cnc2c(N)cccc2c1NCc1ccccn1", "inhibition at 20 µM", 76.8),
    ("CC(C)OC(=O)c1cnc2c(N)cccc2c1NCc1ccccn1", "inhibition at 20 µM", 81.4),
    ("CCOC(=O)c1cnc2c(N)cccc2c1NCc1ccccc1F", "inhibition at 20 µM", 78.8),
]

* * *

# IC50 per record follows
Molecular target: human recombinant caspase-3 enzyme (Homo sapiens, UniProt P42574)
Construct: each cDNA encoding p12 and p17 subunits of caspase-3 was PCR-amplified respectively and subcloned into a pET3-a expression vector; made in house; host or cells: E. coli BL21 (DE3), pET3-a vector
Experiment: Enzyme assay of caspase-3 inhibition (fluorogenic Ac-DEVD-AFC substrate)
Assay type: biochemical
Settings: caspase-3, Table 1; tested at 2, 20 or 200 uM; read-out: IC50

# Compound, System name, Unit descriptor, IC50
rows = [
    ("CCOC(=O)c1cnc2c(N)cccc2c1NCC(C)C [Example 27]", "human recombinant caspase-3 enzyme (Homo sapiens, UniProt P42574)", "µM", 15.9),
    ("CCOC(=O)c1cnc2c(N)cccc2c1NCc1ccccc1F [Example 29]", "human recombinant caspase-3 enzyme (Homo sapiens, UniProt P42574)", "µM", 18.8),
    ("CCOC(=O)c1cnc2c(N)cccc2c1NCc1ccc(OC)cc1 [Example 33]", "human recombinant caspase-3 enzyme (Homo sapiens, UniProt P42574)", "µM", 15.8),
    ("CCOC(=O)c1cnc2c(N)cccc2c1NCc1cccc(F)c1 [Example 30]", "human recombinant caspase-3 enzyme (Homo sapiens, UniProt P42574)", "µM", 19.1),
    ("CCOC(=O)c1cnc2c(N)cccc2c1NCc1cccc2ccccc12 [Example 19]", "human recombinant caspase-3 enzyme (Homo sapiens, UniProt P42574)", "µM", 14.9),
    ("CCOC(=O)c1cnc2c(N)cccc2c1NCc1ccccc1 [Example 17]", "human recombinant caspase-3 enzyme (Homo sapiens, UniProt P42574)", "µM", 14.4),
    ("CCOC(=O)c1cnc2c(N)cccc2c1NCc1cc(OC)cc(OC)c1 [Example 47]", "human recombinant caspase-3 enzyme (Homo sapiens, UniProt P42574)", "µM", 21.2),
    ("CCOC(=O)c1cnc2c(N)cccc2c1NCCCN1CCOCC1 [Example 22]", "human recombinant caspase-3 enzyme (Homo sapiens, UniProt P42574)", "µM", 13.8),
    ("CCOC(=O)c1cnc2c(N)cccc2c1NCc1cccc(OC)c1OC [Example 44]", "human recombinant caspase-3 enzyme (Homo sapiens, UniProt P42574)", "µM", 18.1),
    ("CCCCNc1c(C(=O)OCC)cnc2c(N)cccc12 [Example 26]", "human recombinant caspase-3 enzyme (Homo sapiens, UniProt P42574)", "µM", 15.4),
    ("CCOC(=O)c1cnc2c(N)cccc2c1NCCCOC(C)C [Example 31]", "human recombinant caspase-3 enzyme (Homo sapiens, UniProt P42574)", "µM", 13.5),
    ("CCOC(=O)c1cnc2c(N)cccc2c1NCc1ccc(C)cc1 [Example 37]", "human recombinant caspase-3 enzyme (Homo sapiens, UniProt P42574)", "µM", 15.3),
    ("CCOC(=O)c1cnc2c(N)cccc2c1NCc1ccc(Cl)cc1Cl [Example 43]", "human recombinant caspase-3 enzyme (Homo sapiens, UniProt P42574)", "µM", 27),
    ("CCOC(=O)c1cnc2c(N)cccc2c1NCc1ccc(Cl)cc1 [Example 42]", "human recombinant caspase-3 enzyme (Homo sapiens, UniProt P42574)", "µM", 17),
    ("CCOC(=O)c1cnc2c(N)cccc2c1NCCCc1ccccc1 [Example 39]", "human recombinant caspase-3 enzyme (Homo sapiens, UniProt P42574)", "µM", 16.4),
    ("CCOC(=O)c1cnc2c(N)cccc2c1NCc1ccccc1OC [Example 32]", "human recombinant caspase-3 enzyme (Homo sapiens, UniProt P42574)", "µM", 16.9),
    ("CCCNc1c(C(=O)OCC)cnc2c(N)cccc12 [Example 45]", "human recombinant caspase-3 enzyme (Homo sapiens, UniProt P42574)", "µM", 16),
    ("CCOC(=O)c1cnc2c(N)cccc2c1NCCOC [Example 35]", "human recombinant caspase-3 enzyme (Homo sapiens, UniProt P42574)", "µM", 13.6),
    ("CCOC(=O)c1cnc2c(N)cccc2c1NCc1cccs1 [Example 21]", "human recombinant caspase-3 enzyme (Homo sapiens, UniProt P42574)", "µM", 19.2),
    ("CCOC(=O)c1cnc2c(N)cccc2c1NC1CCCCC1 [Example 18]", "human recombinant caspase-3 enzyme (Homo sapiens, UniProt P42574)", "µM", 14.1),
    ("CCOC(=O)c1cnc2c(N)cccc2c1NCc1cccc(OC)c1 [Example 34]", "human recombinant caspase-3 enzyme (Homo sapiens, UniProt P42574)", "µM", 16),
]
